Reference source for all entries: ChEMBL document CHEMBL3779769

System: HEK293
Test: Cytotoxicity against HEK293 cells assessed as cell viability after 48 hrs by MTT assay
Assay type: cell-based
Settings: Homo sapiens, HEK293, 48 h
Please note: IC50 exactly at 30 µM is n. Only values below 30 µM get y.

O=C(OCc1cn(-c2cccc(C(F)(F)F)c2)nn1)c1cc2ccccc2[nH]1 | n
Cc1cccc(-n2cc(COC(=O)c3cc4ccccc4[nH]3)nn2)c1C | y
CCCCc1ccc(-n2cc(COC(=O)c3cc4ccccc4[nH]3)nn2)cc1 | y
O=C(OCc1cn(-c2ccccc2Br)nn1)c1cc2ccccc2n1Cc1cn(-c2ccccc2Br)nn1 | y
COc1ccc(-n2cc(COC(=O)c3cc4ccccc4[nH]3)nn2)cc1 | n
COc1ccc(-n2cc(COC(=O)c3cc4ccccc4n3Cc3cn(-c4ccc(OC)cc4)nn3)nn2)cc1 | n
O=C(OCc1cn(-c2cccc(C(F)(F)F)c2)nn1)c1cc2ccccc2n1Cc1cn(-c2cccc(C(F)(F)F)c2)nn1 | y
Cc1cccc(-n2cc(COC(=O)c3cc4ccccc4n3Cc3cn(-c4cccc(C)c4C)nn3)nn2)c1C | y
Cc1cc(C)cc(-n2cc(COC(=O)c3cc4ccccc4n3Cc3cn(-c4cc(C)cc(C)c4)nn3)nn2)c1 | n

----------
Known IC50 of a selection of compounds
System: HEK293
Assay: Cytotoxicity against HEK293 cells assessed as cell viability after 48 hrs by MTT assay
Format: cell-based
Conditions: Homo sapiens, HEK293, 48 h
RECORDED_ENDPOINT: IC50

CCCCc1ccc(-n2cc(COC(=O)c3cc4ccccc4n3Cc3cn(-c4ccc(CCCC)cc4)nn3)nn2)cc1 | > 200 µM
Cc1cc(C)cc(-n2cc(COC(=O)c3cc4ccccc4[nH]3)nn2)c1 | 12.5 µM
O=C(OCc1cn(-c2ccccc2Br)nn1)c1cc2ccccc2[nH]1 | > 200 µM
